Provenance of the data: ChEMBL document CHEMBL1128965

target_or_test_system: Prothrombin (Homo sapiens)
pKi: −log10 of the molar value.
// reported pKi per item

| structure_as_smiles | pKi |
| --- | --- |
| CC1(C)[C@@H]2C[C@H]3OB([C@H](CCCCN)NC(=O)[C@@H]4CCCN4C(=O)c4cccc(Cc5ccccc5Br)c4)O[C@@]3(C)[C@H]1C2 | 9.64 |
| Cc1ccccc1Cc1cccc(C(=O)N2CCC[C@H]2C(=O)N[C@@H](CCCCN)B2O[C@@H]3C[C@@H]4C[C@@H](C4(C)C)[C@]3(C)O2)c1 | 9.60 |
| COc1ccccc1Sc1cccc(C(=O)N2CCC[C@H]2C(=O)N[C@@H](CCCCN)B2O[C@@H]3C[C@@H]4C[C@@H](C4(C)C)[C@]3(C)O2)c1 | 9.72 |
| COc1ccccc1S(=O)(=O)c1cccc(C(=O)N2CCC[C@H]2C(=O)N[C@@H](CCCCN)B2O[C@@H]3C[C@@H]4C[C@@H](C4(C)C)[C@]3(C)O2)c1 | 9.24 |
| CC1(C)[C@@H]2C[C@H]3OB([C@H](CCCCN)NC(=O)[C@@H]4CCCN4C(=O)c4cccc(Cc5ccccc5C(F)(F)F)c4)O[C@@]3(C)[C@H]1C2 | 10.15 |
| CC1(C)[C@@H]2C[C@H]3OB([C@H](CCCCN)NC(=O)[C@@H]4CCCN4C(=O)c4ccc(Cc5ccccc5)cc4)O[C@@]3(C)[C@H]1C2 | 8.74 |
| CC1(C)[C@@H]2C[C@H]3OB([C@H](CCCCN)NC(=O)[C@@H]4CCCN4C(=O)c4cccc(Cc5ccccc5)c4)O[C@@]3(C)[C@H]1C2 | 9.72 |
| CC1(C)[C@@H]2C[C@H]3OB([C@H](CCCCN)NC(=O)[C@@H]4CCCN4C(=O)c4cccc(Cc5cccc(F)c5)c4)O[C@@]3(C)[C@H]1C2 | 9.37 |
| CSc1ccccc1Cc1cccc(C(=O)N2CCC[C@H]2C(=O)N[C@@H](CCCCN)B2O[C@@H]3C[C@@H]4C[C@@H](C4(C)C)[C@]3(C)O2)c1 | 9.30 |
| CC1(C)[C@@H]2C[C@H]3OB([C@H](CCCCN)NC(=O)[C@@H]4CCCN4C(=O)c4cccc(Cc5ccc6c(c5)OCO6)c4)O[C@@]3(C)[C@H]1C2 | 10.05 |
